// reported log10(IC50) per item
System: breast tumor cells MDA-MB-436
Assay: MDA-MB-436 cell activity test (CellTiter-Glo, 7 days)
Assay type: cell-based, human
Settings: Homo sapiens, MDA-MB-436, 168 h, MDA-MB-436 cells, 7 days incubation; read-out: IC50 (nM), MDA-MB-436 cell inhibitory activity
Each number you see is log10 of IC50, and the unit inside the log is nM.

Example entries and their recorded answers appear below.
CCc1cc2ncc(CN3CCN(c4ccc(C(=O)NC5CCN(c6cccc(N7CCC(=O)NC7=O)c6)CC5)nc4)CC3)cc2[nH]c1=O = 1.25
CCc1cc2ncc(CN3CCN(c4ccc(C(=O)NC5CCN(c6ncc(N7CCC(=O)NC7=O)cn6)CC5)nc4)CC3)cc2[nH]c1=O = 1.18
CCc1cc2ncc(CN3CCN(c4ccc(C(=O)NC5CN(c6ccc7c(c6)C(=O)N(C6CCC(=O)NC6=O)C7=O)C5)nc4)CC3)cc2[nH]c1=O (centres unmarked) = 0.30

Then there is this compound:
Prompt: Need log10(IC50), item CCc1cc2ncc(CN3CCN(c4ccc(NC(=O)c5cnn(C6CCN(c7ccc8c(c7)C(=O)N(C7CCC(=O)NC7=O)C8=O)CC6)c5)nc4)CC3)cc2[nH]c1=O (centres unmarked)
Response: 1.09

---

// reported PARP1 degradation rate @ 100 nM per item
Target: PARP1 (Homo sapiens (Human))
Sequence (P09874 whole entry): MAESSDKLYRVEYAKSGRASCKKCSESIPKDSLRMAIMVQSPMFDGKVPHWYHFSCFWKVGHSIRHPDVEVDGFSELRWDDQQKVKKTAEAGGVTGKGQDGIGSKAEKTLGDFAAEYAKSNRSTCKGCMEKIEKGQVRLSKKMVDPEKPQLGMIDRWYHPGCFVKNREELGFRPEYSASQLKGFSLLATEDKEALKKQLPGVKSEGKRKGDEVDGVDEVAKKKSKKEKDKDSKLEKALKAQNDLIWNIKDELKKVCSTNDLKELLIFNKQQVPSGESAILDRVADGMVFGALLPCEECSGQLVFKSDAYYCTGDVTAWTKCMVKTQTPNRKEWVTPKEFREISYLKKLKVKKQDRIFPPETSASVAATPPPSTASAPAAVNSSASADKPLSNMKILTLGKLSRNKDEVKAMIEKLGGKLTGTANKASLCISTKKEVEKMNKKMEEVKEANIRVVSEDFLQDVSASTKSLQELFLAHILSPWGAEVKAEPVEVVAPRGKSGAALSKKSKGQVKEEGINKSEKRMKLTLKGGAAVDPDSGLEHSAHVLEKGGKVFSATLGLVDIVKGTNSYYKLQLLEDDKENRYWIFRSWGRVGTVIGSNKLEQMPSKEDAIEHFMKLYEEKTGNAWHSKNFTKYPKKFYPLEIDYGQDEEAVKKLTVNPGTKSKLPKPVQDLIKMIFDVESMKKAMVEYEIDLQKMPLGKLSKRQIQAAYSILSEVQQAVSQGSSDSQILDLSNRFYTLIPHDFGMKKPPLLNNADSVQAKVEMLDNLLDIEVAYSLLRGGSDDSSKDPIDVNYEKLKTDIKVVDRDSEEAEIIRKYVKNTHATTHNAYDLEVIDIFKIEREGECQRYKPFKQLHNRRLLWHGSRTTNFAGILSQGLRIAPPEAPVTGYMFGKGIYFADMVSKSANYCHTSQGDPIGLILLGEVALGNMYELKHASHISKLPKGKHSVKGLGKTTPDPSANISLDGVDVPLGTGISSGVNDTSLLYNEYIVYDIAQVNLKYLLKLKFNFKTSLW
Test: PARP1 protein expression level in MDA-MB-436 cells
Assay type: cell-based
Conditions: 100 nM, 24 hours
Description: MDA-MB-436 cells were placed in a complete DMEM medium (supplemented with 15% FBS; 10 μg/mL Insulin; 16 μg/mL Glutathione and 1% penicillin-streptomycin solution), and cultured at 37° C. under CO2-free conditions. […] The supernatant was collected and the protein content was determined using the BCA method. […]
The reply must contain the numeric value and, after it, the unit.

CCc1cc2ncc(CN3CCN(c4ccc(C(=O)NC5CCN(c6ccc7c(c6)C(=O)N(C6CCC(=O)NC6=O)C7=O)CC5)nc4)CC3)cc2[nH]c1=O (stereo not drawn) = 79%

Prompt: Find the measured PARP1 degradation rate @ 100 nM: item CCc1cc2ncc(CN3CC=C(c4ccc(C(=O)Nc5cnn(C6CCN(c7ccc8c(c7)C(=O)N(C7CCC(=O)NC7=O)C8=O)CC6)c5)nc4)CC3)cc2[nH]c1=O (stereo not drawn) , target or system PARP1 (Homo sapiens (Human)).
Response: 79.6%

Prompt: How about this compound: CCc1cc2ncc(CN3CCN(c4ccc(C(=O)Nc5cnn(C6CCN(c7ccc8c(c7)C(=O)N(C7CCC(=O)NC7=O)C8=O)CC6)c5)nc4)CC3)cc2[nH]c1=O (stereo not drawn)
Response: 80.6%

---

Test system: breast tumor cells MDA-MB-436
Experiment: MDA-MB-436 cell activity test (CellTiter-Glo, 7 days)
Format: cell-based, human
Details: Homo sapiens, MDA-MB-436, 168 h, MDA-MB-436 cells, 7 days incubation; read-out: IC50 (nM), MDA-MB-436 cell inhibitory activity
In plain terms, low IC50, meaning strictly below 20 nM, gives met, and everything else gives not met.

CCc1cc2ncc(CN3CCN(c4ccc(C(=O)NC5CCN(c6cccc(NC7CCC(=O)NC7=O)c6)CC5)nc4)CC3)cc2[nH]c1=O (stereo not shown) [Compound 64] = not met
CCc1cc2ncc(CN3CCN(c4ccc(C(=O)Nc5cnn(C6CCN(c7ccc8c(c7)C(=O)N(C7CCC(=O)NC7=O)C8=O)CC6)c5)nc4)CC3)cc2[nH]c1=O (stereo not shown) [Compound 57] = met
CCc1cc2ncc(CN3CCN(c4ccc(C(=O)N[C@H]5CC[C@@H](Nc6ccc7c(c6)C(=O)N(C6CCC(=O)NC6=O)C7=O)CC5)nc4)CC3)cc2[nH]c1=O (stereo partly shown) [Compound 27] = met

Prompt: Decide: IC50 of CCc1cc2ncc(CN3CCN(c4ccc(C(=O)N[C@H]5CCN(c6cc7c(cc6F)C(=O)N(C6CCC(=O)NC6=O)C7=O)C5)nc4)CC3)cc2[nH]c1=O (stereo partly shown) [Compound 51] strictly below 20 nM?
Response: met

Prompt: How about this molecule: CCc1cc2ncc(CN3CC=C(c4ccc(C(=O)N[C@H]5CCN(c6ccc7c(c6)C(=O)N(C6CCC(=O)NC6=O)C7=O)C5)nc4)CC3)cc2[nH]c1=O (stereo partly shown) [Compound 53]
Response: not met

---

Test system: breast tumor cells MDA-MB-436
Assay: MDA-MB-436 cell activity test (CellTiter-Glo, 7 days)
Type: cell-based, human
Conditions: Homo sapiens, MDA-MB-436, 168 h, MDA-MB-436 cells, 7 days incubation; read-out: IC50 (nM), MDA-MB-436 cell inhibitory activity
QUANTITY_MEASURED: IC50 (nM)
Give a bare numeral; the unit nM is implied.

CCc1cc2ncc(CN3CCN(c4ccc(C(=O)NC5CCN(CC6CCN(Cc7ccc(-n8c(O)nnc8-c8cc(C(C)C)c(O)cc8O)cc7)CC6)CC5)nc4)CC3)cc2[nH]c1=O [Compound 8] = 15

Prompt: Need IC50, item CCc1cc2ncc(CN3CCN(c4ccc(C(=O)NC5CC6(C5)CN(c5ccc7c(c5)C(=O)N(C5CCC(=O)NC5=O)C7=O)C6)nc4)CC3)cc2[nH]c1=O (centres unmarked) [Compound 24]
Response: 38

Prompt: How about this compound: CCc1cc2ncc(CN3CC=C(c4ccc(C(=O)NC5CCN(c6cccc(NC7CCC(=O)NC7=O)c6)CC5)nc4)CC3)cc2[nH]c1=O (centres unmarked) [Compound 65]
Response: 39.5

Prompt: How about this compound: CCc1cc2ncc(CN3CCN(c4ccc(C(=O)N[C@H]5C[C@H](Nc6ccc7c(c6)C(=O)N(C6CCC(=O)NC6=O)C7=O)C5)nc4)CC3)cc2[nH]c1=O (some centres unmarked) [Compound 38]
Response: 12

Prompt: How about this compound: Cc1nc2ccc(CN3CCN(c4ccc(C(=O)NC5CCN(c6cccc(N7CCC(=O)NC7=O)c6)CC5)nc4F)CC3)c(F)c2[nH]c1=O [Compound 71]
Response: 73.4
